Answer each item with its documented pIC50.
# TARGET_OF_ASSAY: H1047R PIK3CA enzyme (Homo sapiens, UniProt P42336, H1047R)
# Sequence (P42336 whole entry H1047R): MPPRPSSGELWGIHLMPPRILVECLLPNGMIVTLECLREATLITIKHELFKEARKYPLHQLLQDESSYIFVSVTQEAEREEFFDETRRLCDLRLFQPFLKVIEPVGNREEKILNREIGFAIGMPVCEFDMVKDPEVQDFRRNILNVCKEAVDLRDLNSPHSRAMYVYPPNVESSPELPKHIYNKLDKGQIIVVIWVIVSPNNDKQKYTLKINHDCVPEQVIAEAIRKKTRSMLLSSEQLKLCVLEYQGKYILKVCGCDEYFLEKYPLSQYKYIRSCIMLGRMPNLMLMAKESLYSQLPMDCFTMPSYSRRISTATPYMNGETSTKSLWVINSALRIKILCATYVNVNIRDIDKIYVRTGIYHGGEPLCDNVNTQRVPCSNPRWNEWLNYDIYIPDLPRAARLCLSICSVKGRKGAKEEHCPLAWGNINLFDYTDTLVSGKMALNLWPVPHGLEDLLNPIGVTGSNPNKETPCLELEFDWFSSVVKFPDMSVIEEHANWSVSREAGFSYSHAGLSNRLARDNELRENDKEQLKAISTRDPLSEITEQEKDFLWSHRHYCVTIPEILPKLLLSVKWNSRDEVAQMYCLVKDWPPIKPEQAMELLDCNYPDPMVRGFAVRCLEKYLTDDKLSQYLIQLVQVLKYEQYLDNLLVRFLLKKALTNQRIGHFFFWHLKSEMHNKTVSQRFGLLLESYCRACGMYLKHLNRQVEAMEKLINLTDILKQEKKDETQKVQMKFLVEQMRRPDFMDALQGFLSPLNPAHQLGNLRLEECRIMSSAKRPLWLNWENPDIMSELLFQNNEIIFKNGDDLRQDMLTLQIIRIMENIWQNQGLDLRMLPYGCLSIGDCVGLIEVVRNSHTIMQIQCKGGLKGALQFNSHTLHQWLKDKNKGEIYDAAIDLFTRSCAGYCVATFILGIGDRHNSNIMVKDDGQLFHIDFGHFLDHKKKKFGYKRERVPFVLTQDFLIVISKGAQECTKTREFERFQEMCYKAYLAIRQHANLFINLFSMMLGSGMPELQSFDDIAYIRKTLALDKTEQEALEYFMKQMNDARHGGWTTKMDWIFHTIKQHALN
# Sequence (P27986 whole entry partner): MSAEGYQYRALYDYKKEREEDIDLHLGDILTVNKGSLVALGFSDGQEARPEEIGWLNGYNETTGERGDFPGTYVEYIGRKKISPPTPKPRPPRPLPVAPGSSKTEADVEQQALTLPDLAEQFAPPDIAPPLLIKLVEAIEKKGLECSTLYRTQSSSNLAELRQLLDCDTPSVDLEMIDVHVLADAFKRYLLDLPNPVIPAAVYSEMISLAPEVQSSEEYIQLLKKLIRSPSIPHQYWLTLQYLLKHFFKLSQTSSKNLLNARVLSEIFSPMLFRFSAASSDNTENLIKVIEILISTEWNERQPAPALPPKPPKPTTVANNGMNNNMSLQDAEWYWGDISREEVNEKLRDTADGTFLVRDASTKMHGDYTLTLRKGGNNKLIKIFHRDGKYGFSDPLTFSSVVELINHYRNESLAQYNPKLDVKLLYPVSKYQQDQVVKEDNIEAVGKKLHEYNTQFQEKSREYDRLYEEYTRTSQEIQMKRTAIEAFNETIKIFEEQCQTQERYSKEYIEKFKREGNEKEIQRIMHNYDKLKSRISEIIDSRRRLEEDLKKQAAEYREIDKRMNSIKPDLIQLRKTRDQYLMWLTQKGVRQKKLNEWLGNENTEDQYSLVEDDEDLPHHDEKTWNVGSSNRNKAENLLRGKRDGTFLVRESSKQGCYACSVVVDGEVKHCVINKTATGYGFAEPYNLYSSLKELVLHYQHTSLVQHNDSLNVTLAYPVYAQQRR
# EXPERIMENT_NOTES: ADP-Glo Biochemical PIK3CA Kinase Assay
pIC50: −log10 of the molar value.

Take a look at these entries with their results.
- COMPOUND: "Cn1cc(NC(=O)c2cc(F)cc(C(F)(F)F)c2)c(N2CCOc3ccccc32)cc1=O"
  QUANTITY_MEASURED: "pIC50"
  RESULT: "5.00 to 6.00"
- COMPOUND: "CNC(=O)c1cnc(Nc2ccc(C)cc2)c(NC(=O)c2cc(F)cc(C(F)(F)F)c2)c1"
  QUANTITY_MEASURED: "pIC50"
  RESULT: "6.00 to 6.30"
- COMPOUND: "CNC(=O)c1cnc(Nc2ccccc2C)c(NC(=O)c2cnn(C)c2C(F)(F)F)c1"
  QUANTITY_MEASURED: "pIC50"
  RESULT: "4.00 to 5.00"

Items follow; give pIC50 for each.
1. CNC(=O)c1cnc(Nc2ccccc2C)c(NC(=O)c2cncc(C(F)(F)F)c2)c1
2. Cc1ccccc1Nc1ncc(-c2cnn(C3CCN(C(=O)OC(C)(C)C)CC3)c2)cc1NC(=O)c1cc(F)cc(C(F)(F)F)c1
3. Cc1ccccc1Nc1cnccc1NC(=O)c1csc2ccccc12
4. C[C@H](NC(=O)c1cnc(N2CCOc3ccccc32)c(NC(=O)c2csc3ccccc23)c1)c1cccnc1 (stereo in doubt)

Out:
1: 4.00 to 5.00; 2: 5.00 to 6.00; 3: 5.00 to 6.00; 4: 6.30 to 7.00

List the reported pIC50 of each compound below.
1. Cc1ccccc1Nc1ncc(NS(C)(=O)=O)cc1NC(=O)c1cc(F)cc(C(F)(F)F)c1
2. CNC(=O)c1cnc(NCc2nccn2C)c(NC(=O)c2cc(F)cc(C(F)(F)F)c2)c1
3. CNC(=O)c1cnc(Nc2ccccc2C)c(NC(=O)c2cc(F)cc(C#N)c2)c1
4. C[C@@H](NC(=O)c1cnc(N2CCOc3ccccc32)c(NC(=O)c2csc3ccccc23)c1)c1ccncc1 (stereo in doubt)

Out:
1: 5.00 to 6.00; 2: 4.00 to 5.00; 3: 5.00 to 6.00; 4: 6.30 to 7.00

###

# TARGET_OF_ASSAY: H1047R PIK3CA enzyme (Homo sapiens, UniProt P42336, H1047R)
# EXPERIMENT_NOTES: ADP-Glo Biochemical PIK3CA Kinase Assay
pIC50: −log10 of the molar value.
QUANTITY_MEASURED: pIC50

- COMPOUND: "CC1CN(c2ncc(C(=O)N[C@H](C)c3cccnc3)cc2NC(=O)c2csc3ccccc23)c2ccccc2O1 (mixture of isomers) [I-336]"
  TARGET_OF_ASSAY: "H1047R PIK3CA enzyme (Homo sapiens, UniProt P42336, H1047R)"
  RESULT: "5.00 to 6.00"
- COMPOUND: "CNC(=O)c1cnc(Nc2ccccc2C)c(NC(=O)CC2CCc3ccccc32)c1 (stereo not drawn) [I-170]"
  TARGET_OF_ASSAY: "H1047R PIK3CA enzyme (Homo sapiens, UniProt P42336, H1047R)"
  RESULT: "4.00 to 5.00"

Record pIC50 per entry; entries follow.
1. O=C1NCc2ccccc2C1c1ccccc1-c1nc2c(F)cc(C(F)(F)F)cc2[nH]1 (stereo not drawn) [I-820]
2. CNC(=O)c1cnc(Nc2ccccc2)c(N)c1 [I-31]

Out:
4.00 to 5.00
4.00 to 5.00

Respectfully, I request pIC50 for each entry included below.
1. CNC(=O)c1cnc(Nc2ccccc2C)c(NC(=O)c2cccc(C(F)(F)F)n2)c1 [I-376]
2. Cc1ccccc1Nc1ncc(C(=O)Nc2ccnnc2)cc1NC(=O)c1cc(F)cc(C(F)(F)F)c1 [I-240]
3. O=C1C[C@@H](CNC(=O)c2cc(F)cc(C(F)(F)F)c2)[C@H](c2cc(F)ccc2Cl)N1 (racemic) [I-801]

Out:
1: 4.00 to 5.00; 2: 6.30 to 7.00; 3: 6.30 to 7.00

Each compound below has a reported value. Please supply its pIC50.
1. CNC(=O)c1cnc(Nc2ccccc2C)c(NC(=O)Cc2ccc(O)c(O)c2)c1 [I-30]
2. CNC(=O)c1cnc(Nc2ccccc2C)c(NCC2CC2)c1 [I-34]

Out:
1: 6.00 to 6.30; 2: 4.00 to 5.00

Attribution: patent US20250090540A1
